- system-under-test: NAD-dependent protein deacetylase sirtuin-2 (Homo sapiens)
- method: Inhibition of recombinant SIRT2 preincubated for 5 mins before addition of substrate measured after 3 hrs by fluorescence-based assay
Where a SMILES comes first, the peptide text is derived from it. [ ]: non-standard residue; d: D form. Lys(Thioacetyl) = CC(=S)NCCCC[C@H](N)C(=O)O
measurement-label: IC50 (µM)

INSERT INTO measurements (compound, measured_value) VALUES
  ('CC(=S)NCCCC[C@H](NC(=O)[C@H](CC(=O)O)NC(=O)[C@@H](N)CO)C(=O)N[C@H](C(=O)N[C@@H](C)C(=O)O)[C@@H](C)O (H-SD[Lys(Thioacetyl)]TA-OH)', 84.6),
  ('CSCC[C@H](NC(=O)[C@H](CC(C)C)NC(=O)[C@H](CCCCNC(C)=S)NC(=O)[C@H](CC(=O)O)NC(=O)[C@@H](N)CO)C(=O)O (H-SD[Lys(Thioacetyl)]LM-OH)', 92.9),
  ('CC[C@H](C)[C@H](NC(=O)[C@@H](NC(=O)[C@H](CCCCNC(C)=S)NC(=O)[C@H](C)NC(=O)[C@@H](N)CO)[C@@H](C)O)C(=O)O (H-SA[Lys(Thioacetyl)]TI-OH)', 5.5);

* * *

- system-under-test: NAD-dependent protein deacetylase sirtuin-1 (Homo sapiens)
- Sequence (Q96EB6 whole entry): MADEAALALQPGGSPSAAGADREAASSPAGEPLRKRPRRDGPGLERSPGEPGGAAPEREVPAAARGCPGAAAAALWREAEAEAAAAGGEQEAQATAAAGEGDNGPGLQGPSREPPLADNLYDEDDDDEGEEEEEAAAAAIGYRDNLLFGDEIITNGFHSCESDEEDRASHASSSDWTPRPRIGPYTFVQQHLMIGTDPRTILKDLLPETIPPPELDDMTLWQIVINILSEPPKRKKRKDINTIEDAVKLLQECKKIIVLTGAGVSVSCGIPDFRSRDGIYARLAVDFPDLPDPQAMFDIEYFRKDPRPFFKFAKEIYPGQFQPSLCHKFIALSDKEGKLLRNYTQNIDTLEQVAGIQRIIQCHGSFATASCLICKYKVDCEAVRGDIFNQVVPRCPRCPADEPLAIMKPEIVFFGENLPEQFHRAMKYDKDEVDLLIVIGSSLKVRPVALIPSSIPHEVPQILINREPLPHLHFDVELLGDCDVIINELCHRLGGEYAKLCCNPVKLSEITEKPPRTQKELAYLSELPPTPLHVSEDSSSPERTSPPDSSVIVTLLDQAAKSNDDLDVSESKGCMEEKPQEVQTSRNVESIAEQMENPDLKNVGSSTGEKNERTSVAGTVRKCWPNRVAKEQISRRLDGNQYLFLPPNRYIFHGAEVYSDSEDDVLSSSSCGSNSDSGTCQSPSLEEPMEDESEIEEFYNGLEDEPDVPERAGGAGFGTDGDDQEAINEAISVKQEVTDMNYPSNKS
- method: Inhibition of GST-tagged SIRT1 expressed in Escherichia coli after 10 mins by Dixon plot
pIC50: −log10 of the molar value. Where a SMILES comes first, the peptide text is derived from it. [ ]: non-standard residue; d: D form. Lys(Thioacetyl) = CC(=S)NCCCC[C@H](N)C(=O)O
measurement-label: pIC50

INSERT INTO results (compound, system_under_test, measured_value) VALUES
  ('CSCC[C@H](NC(=O)[C@H](CC(C)C)NC(=O)[C@H](CCCCNC(C)=S)NC(=O)[C@H](CCCCN)NC(=O)[C@@H](N)Cc1cnc[nH]1)C(=O)O (H-HK[Lys(Thioacetyl)]LM-OH)', 'NAD-dependent protein deacetylase sirtuin-1 (Homo sapiens)', 5.00);

* * *

Each entry below carries its reported log10 IC50.
- system-under-test: NAD-dependent protein deacetylase sirtuin-1 (Homo sapiens)
- Sequence (Q96EB6 whole entry): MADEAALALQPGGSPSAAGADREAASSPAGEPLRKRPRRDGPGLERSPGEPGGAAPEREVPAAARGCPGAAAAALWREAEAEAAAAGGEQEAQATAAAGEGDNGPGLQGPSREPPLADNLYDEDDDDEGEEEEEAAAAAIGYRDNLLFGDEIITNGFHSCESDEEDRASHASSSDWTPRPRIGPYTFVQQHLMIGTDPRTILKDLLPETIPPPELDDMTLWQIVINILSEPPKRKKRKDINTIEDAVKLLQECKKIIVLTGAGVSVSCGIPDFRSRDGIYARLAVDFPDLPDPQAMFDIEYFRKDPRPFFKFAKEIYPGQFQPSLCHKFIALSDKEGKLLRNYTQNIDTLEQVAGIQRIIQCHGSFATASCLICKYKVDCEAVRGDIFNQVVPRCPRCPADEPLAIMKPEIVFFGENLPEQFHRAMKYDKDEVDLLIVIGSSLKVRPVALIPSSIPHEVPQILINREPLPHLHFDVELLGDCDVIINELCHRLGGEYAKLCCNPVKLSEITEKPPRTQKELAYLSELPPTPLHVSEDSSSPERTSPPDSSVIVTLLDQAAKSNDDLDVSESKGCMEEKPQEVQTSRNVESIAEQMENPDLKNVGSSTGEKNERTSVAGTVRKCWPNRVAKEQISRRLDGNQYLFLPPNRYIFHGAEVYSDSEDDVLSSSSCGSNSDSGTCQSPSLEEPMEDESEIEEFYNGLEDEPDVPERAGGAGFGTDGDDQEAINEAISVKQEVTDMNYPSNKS
- method: Inhibition of recombinant SIRT1 preincubated for 5 mins before addition of substrate measured after 1 hr by fluorescence-based assay
Where a SMILES comes first, the peptide text is derived from it. [ ]: non-standard residue; d: D form. Lys(Thioacetyl) = CC(=S)NCCCC[C@H](N)C(=O)O
measurement-label: log10 IC50 (log10 of the value in µM)

INSERT INTO results (compound, measurement_label, measured_value) VALUES
  ('CSCC[C@H](NC(=O)[C@H](CC(C)C)NC(=O)[C@H](CCCCNC(C)=S)NC(=O)[C@H](CC(=O)O)NC(=O)[C@@H](N)CO)C(=O)O (H-SD[Lys(Thioacetyl)]LM-OH)', 'log10 IC50', 1.03),
  ('CC(=S)NCCCC[C@H](NC(=O)[C@H](CC(=O)O)NC(=O)[C@@H](N)CO)C(=O)N[C@H](C(=O)O)[C@@H](C)O (H-SD[Lys(Thioacetyl)]T-OH)', 'log10 IC50', 1.05),
  ('CC[C@H](C)[C@H](NC(=O)[C@@H](NC(=O)[C@H](CCCCNC(C)=S)NC(=O)[C@H](CC(=O)O)NC(=O)[C@@H](N)Cc1cnc[nH]1)[C@@H](C)O)C(=O)O (H-HD[Lys(Thioacetyl)]TI-OH)', 'log10 IC50', 0.63),
  ('CC[C@H](C)[C@H](NC(=O)[C@@H](NC(=O)[C@H](CCCCNC(C)=S)NC(=O)[C@@H](N)CC(=O)O)[C@@H](C)O)C(=O)O (H-D[Lys(Thioacetyl)]TI-OH)', 'log10 IC50', 0.65),
  ('CSCC[C@H](NC(=O)[C@H](CC(C)C)NC(=O)[C@H](CCCCNC(C)=S)NC(=O)[C@@H](N)CCCCN)C(=O)O (H-K[Lys(Thioacetyl)]LM-OH)', 'log10 IC50', -0.48),
  ('CC(=S)NCCCC[C@H](NC(=O)[C@H](CCCCN)NC(=O)[C@@H](N)Cc1cnc[nH]1)C(=O)N[C@@H](CC(C)C)C(=O)N[C@@H](C)C(=O)O (H-HK[Lys(Thioacetyl)]LA-OH)', 'log10 IC50', -0.05);

* * *

- system-under-test: NAD-dependent protein deacetylase sirtuin-2 (Homo sapiens, UniProt Q8IXJ6)
- Sequence (Q8IXJ6 whole entry): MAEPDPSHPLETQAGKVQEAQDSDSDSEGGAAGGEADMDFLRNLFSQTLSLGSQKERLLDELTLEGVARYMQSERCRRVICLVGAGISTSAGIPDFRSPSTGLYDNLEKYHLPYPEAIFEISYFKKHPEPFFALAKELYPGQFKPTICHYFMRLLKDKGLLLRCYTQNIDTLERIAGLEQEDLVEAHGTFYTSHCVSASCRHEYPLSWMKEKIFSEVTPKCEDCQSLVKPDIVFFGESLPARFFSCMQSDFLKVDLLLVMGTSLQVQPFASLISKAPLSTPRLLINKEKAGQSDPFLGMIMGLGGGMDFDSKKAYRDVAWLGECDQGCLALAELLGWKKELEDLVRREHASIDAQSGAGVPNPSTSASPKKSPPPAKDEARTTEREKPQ
- method: Inhibition of GST-tagged SIRT2 expressed in Escherichia coli after 60 mins by Dixon plot
pIC50: −log10 of the molar value. Where a SMILES comes first, the peptide text is derived from it. [ ]: non-standard residue; d: D form. Lys(Thioacetyl) = CC(=S)NCCCC[C@H](N)C(=O)O
measurement-label: pIC50

INSERT INTO results (compound, measurement_label, measured_value) VALUES
  ('CSCC[C@H](NC(=O)[C@H](CC(C)C)NC(=O)[C@H](CCCCNC(C)=S)NC(=O)[C@H](CCCCN)NC(=O)[C@@H](N)Cc1cnc[nH]1)C(=O)O (H-HK[Lys(Thioacetyl)]LM-OH)', 'pIC50', 5.00);

* * *

- system-under-test: NAD-dependent protein deacetylase sirtuin-2 (Homo sapiens, UniProt Q8IXJ6)
- method: Inhibition of recombinant SIRT2 preincubated for 5 mins before addition of substrate measured after 3 hrs by fluorescence-based assay
Where a SMILES comes first, the peptide text is derived from it. [ ]: non-standard residue; d: D form. Lys(Thioacetyl) = CC(=S)NCCCC[C@H](N)C(=O)O
measurement-label: IC50 (µM)

INSERT INTO measurements (molecule, measurement_label, unit_tag, measured_value) VALUES
  ('CC(=S)NCCCC[C@H](NC(=O)[C@H](CCCCN)NC(=O)[C@@H](N)Cc1cnc[nH]1)C(=O)N[C@@H](CC(C)C)C(=O)N[C@@H](C)C(=O)O (H-HK[Lys(Thioacetyl)]LA-OH)', 'IC50', 'µM', 33.3),
  ('CC[C@H](C)[C@H](NC(=O)[C@@H](NC(=O)[C@H](CCCCNC(C)=S)NC(=O)[C@@H](N)CC(=O)O)[C@@H](C)O)C(=O)O (H-D[Lys(Thioacetyl)]TI-OH)', 'IC50', 'µM', 83.4),
  ('CC[C@H](C)[C@H](NC(=O)[C@@H](NC(=O)[C@H](CCCCNC(C)=S)NC(=O)[C@H](CC(=O)O)NC(=O)[C@@H](N)Cc1cnc[nH]1)[C@@H](C)O)C(=O)O (H-HD[Lys(Thioacetyl)]TI-OH)', 'IC50', 'µM', 31.1),
  ('CC[C@H](C)[C@H](NC(=O)[C@@H](NC(=O)[C@H](CCCCNC(C)=S)NC(=O)[C@H](CC(=O)O)NC(=O)[C@@H](N)CO)[C@@H](C)O)C(=O)O (H-SD[Lys(Thioacetyl)]TI-OH)', 'IC50', 'µM', 29.1),
  ('CC[C@H](C)[C@H](NC(=O)[C@H](CC(C)C)NC(=O)[C@H](CCCCNC(C)=S)NC(=O)[C@H](CC(=O)O)NC(=O)[C@@H](N)CO)C(=O)O (H-SD[Lys(Thioacetyl)]LI-OH)', 'IC50', 'µM', 238);
